Kindly supply the reported T/C values for the records listed here.
System: L1210 leukemia ip in BDF1 mice, survival T/C
Test: NCI In Vivo Anticancer Drug Screen. Data for tumor model L1210 Leukemia (intraperitoneal) in B6D2F1 (BDF1) mice
Settings: endpoint: mean survival time; dose: 100.0 mg/kg/injection; schedule: Q04DX002 (ip); vehicle: saline with Tween-80; higher = longer survival
Toxic doses and inconclusive results are not listed.

Recorded T/C, per entry:
C/C(=N\N=C(/C)c1ccc(C)cc1C)c1ccc(C)cc1C; 98 % of control
COC(=O)COc1cc(Cl)c(Cl)cc1Cl; 95 % of control
CO/C(C)=C(/C#N)C(N)=S; 93 % of control
CC(C)(C)N1C=C(c2ccccc2)N=CC1(c1ccccc1)C(C)(C)C (centres undefined); 99 % of control
CCCC#CC(=O)OCCCC; 93 % of control

Look at each compound and report its T/C.
1. O=C(Nc1ccccc1)OC1CCCCC1OC(=O)Nc1ccccc1 (centres undefined)
2. CC1(C)CC(=O)CC(C)(C)ON1

1. 87 % of control
2. 99 % of control
